Can you tell me IC50 for the items I'm about to list?
target_under_test: HGF (human, UniProt P14210)
Sequence (P14210 32-728): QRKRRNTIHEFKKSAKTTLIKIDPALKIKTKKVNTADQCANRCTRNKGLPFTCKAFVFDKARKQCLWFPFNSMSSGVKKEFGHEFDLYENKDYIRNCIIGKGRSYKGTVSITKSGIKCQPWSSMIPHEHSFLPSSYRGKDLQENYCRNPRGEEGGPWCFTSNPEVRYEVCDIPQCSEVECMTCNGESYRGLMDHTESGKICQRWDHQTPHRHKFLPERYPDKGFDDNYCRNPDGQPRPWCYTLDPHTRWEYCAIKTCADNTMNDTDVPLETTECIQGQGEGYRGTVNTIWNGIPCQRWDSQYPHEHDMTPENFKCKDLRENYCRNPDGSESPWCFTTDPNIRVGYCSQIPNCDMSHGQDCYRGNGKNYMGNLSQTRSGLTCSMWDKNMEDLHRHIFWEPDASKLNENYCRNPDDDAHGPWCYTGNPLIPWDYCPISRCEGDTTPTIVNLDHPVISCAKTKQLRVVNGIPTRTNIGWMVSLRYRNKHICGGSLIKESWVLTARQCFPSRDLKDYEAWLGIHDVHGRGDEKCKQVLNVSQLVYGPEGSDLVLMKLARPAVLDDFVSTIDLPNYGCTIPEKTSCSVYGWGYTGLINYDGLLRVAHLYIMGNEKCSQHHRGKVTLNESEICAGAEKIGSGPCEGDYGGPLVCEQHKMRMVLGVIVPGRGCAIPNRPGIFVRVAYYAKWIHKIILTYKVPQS
experiment_description: competition

Examples with their reported IC50 follow.
- binder: "DVD034 HGF arm (antibody, V domains shown, DVD-Ig outer) VH: QVQLVESGGGLVKPGGSLRLSCAASGFTFSDYYMSWIRQAPGKGLEWVSYISSSGSTIYYADSVKGRFTISRDNAKNSLYLQMNSLRAEDTAVYYCARDEYNSGWYVLFDYWGQGTLVTVSS VL: DIQMTQSPSSVSASVGDRVTITCRASQGISSWLAWYQQKPGKAPNLLIYEASSLQSGVPSRFGGSGSGTDFTLTISSLQPEDFATYYCQQANGFPWTFGQGTKVEIKR"
  reported_result: "0.34 nM"
- binder: "DVD025 HGF arm (antibody, V domains shown, DVD-Ig inner) VH: QVQLVESGGGLVKPGGSLRLSCAASGFTFSDYYMSWIRQAPGKGLEWVSYISSSGSTIYYADSVKGRFTISRDNAKNSLYLQMNSLRAEDTAVYYCARDEYNSGWYVLFDYWGQGTLVTVSS VL: DIQMTQSPSSVSASVGDRVTITCRASQGISSWLAWYQQKPGKAPNLLIYEASSLQSGVPSRFGGSGSGTDFTLTISSLQPEDFATYYCQQANGFPWTFGQGTKVEIKR"
  reported_result: "> 100 nM"
- binder: "DVD045 HGF arm (antibody, V domains shown, DVD-Ig inner) VH: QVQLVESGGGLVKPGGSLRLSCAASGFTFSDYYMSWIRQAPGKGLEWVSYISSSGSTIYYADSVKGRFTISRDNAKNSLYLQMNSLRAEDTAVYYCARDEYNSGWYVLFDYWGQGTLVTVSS VL: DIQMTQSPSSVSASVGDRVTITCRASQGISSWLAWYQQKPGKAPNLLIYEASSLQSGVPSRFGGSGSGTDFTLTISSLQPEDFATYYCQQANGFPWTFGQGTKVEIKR"
  reported_result: "> 100 nM"

Turning now to a further record.
Looking up DVD033 HGF arm (antibody, V domains shown, DVD-Ig inner) VH: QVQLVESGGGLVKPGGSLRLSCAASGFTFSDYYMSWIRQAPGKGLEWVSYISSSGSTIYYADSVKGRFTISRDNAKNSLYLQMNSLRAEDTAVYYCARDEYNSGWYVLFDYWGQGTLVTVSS VL: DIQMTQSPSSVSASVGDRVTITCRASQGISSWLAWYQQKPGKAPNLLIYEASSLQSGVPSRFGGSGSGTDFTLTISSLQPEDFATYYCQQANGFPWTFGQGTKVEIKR , I found its IC50 recorded as 8.7 nM
